Listed below: cytotoxicity at 70.5 h values for each entry.
Experiment: Human HepG2 cell viability assay in 384 well format
Type: toxicity, cell-based
Set-up: dose 125 nL, time 70.5 hour; concentration not given beside the values
Settings: HepG2 cells, read-out: Inhibition
Unit % implied. Number only.

Field: example entries. Status: answers known.
* CCN(CC)S(=O)(=O)c1ccc(C(=O)NC(C)(C)C)cc1 | 35.7
* Cc1ccc(NC2CCN(C(=O)c3nccc4ccccc34)CC2)nn1 | -4.93
* CCCS(=O)(=O)CCN1CCN(c2cc(F)ccc2F)CC1 | 2.83
* Cc1ccc(S(=O)(=O)N2CC[C@@H](O)C2)c(F)c1 | -2.84
* CCOCCNCc1cc(O)c2cc(C)ccc2n1 | -5.02

Here's the next entry for you.
So what does the record say about cytotoxicity at 70.5 h for Cc1nn(CC(O)CN2CCC(C)CC2)c(=O)c(C#N)c1C (stereo unspecified) ?
-17
